Hello, the source for this data is the CheMixHub drug solubility set, in case you need it.

Reported solubility (g/100 g solution) is given for each of the following compounds.
Assay: xn = mol fraction of the nth substance listed, in the solute-free solvent
Conditions: 288.15 K; x2 = 0.6
Write no unit; give the number alone.

Some compounds with known solubility (g/100 g solution) results, for comparison:
compound | solubility (g/100 g solution)
O=c1ccc2ccccc2o1 + CC(C)=O + O | 36
CN1CCN(C(=O)OC2c3nccnc3C(=O)N2c2ccc(Cl)cn2)CC1 (centres undefined) + C1CCOC1 + O | 2.06
CN1CCN(C(=O)OC2c3nccnc3C(=O)N2c2ccc(Cl)cn2)CC1 (centres undefined) + CC(C)=O + O | 0.825

With those in mind, consider the next compound.
## Task Can you look up the measured solubility (g/100 g solution) of O=C(CC(=O)c1ccccc1)c1ccccc1 + CCO + O for me?
## Result 0.904

###

Listing of entries alongside the reported solubility (g/100 g solution).
Experiment: xn = mol fraction of the nth substance listed, in the solute-free solvent
Settings: 308.15 K; x2 = 0.6

These solved cases illustrate the format of a correct answer.
molecule | solubility (g/100 g solution)
CN1CCN(C(=O)OC2c3nccnc3C(=O)N2c2ccc(Cl)cn2)CC1 (stereo not drawn) + CC(C)=O + O | 1.46
CN1CCN(C(=O)OC2c3nccnc3C(=O)N2c2ccc(Cl)cn2)CC1 (stereo not drawn) + C1CCOC1 + O | 3.54

## Task Can you look up the measured solubility (g/100 g solution) of CN1CCN(C(=O)OC2c3nccnc3C(=O)N2c2ccc(Cl)cn2)CC1 (stereo not drawn) + CCO + O for me?
## Result 1.32

###

Experiment: xn = mol fraction of the nth substance listed, in the solute-free solvent
Details: 313.15 K; x2 = 0.1666
Below, each entry is listed alongside its reported solubility (g/100 g solution).
Just the number, please, no unit after it.

Worked examples, 2 compounds total:
compound | metric.name | quantitative.readout
CS(=O)(=O)c1ccc(C(O)C(CF)NC(=O)C(Cl)Cl)cc1 (stereo not drawn) + CC(C)O + O | solubility (g/100 g solution) | 1.29
CC(=O)Nc1ccc(OC(=O)c2ccccc2OC(C)=O)cc1 + CC(C)O + O | solubility (g/100 g solution) | 0.195

Alright, here's another compound for you.
## Task Would you mind telling me what solubility (g/100 g solution) value was observed for COC(=O)C1=C(C)NC(C)=C(C(=O)OCC(C)C)C1c1ccccc1[N+](=O)[O-] (stereo not drawn) + CCCO + O ?
## Result 5.07

###

Experiment: xn = mol fraction of the nth substance listed, in the solute-free solvent
Conditions: 298.15 K; x2 = 0.3
metric.name: solubility (g/100 g solution)
Please give only the number in your answer, with no unit.

Examples from the recorded data:
compound | solubility (g/100 g solution)
CN1CCN(C(=O)OC2c3nccnc3C(=O)N2c2ccc(Cl)cn2)CC1 (centres undefined) + CCO + O | 0.208
CCOC(=O)C1=CC2(CC)CCCN3CCc4c(n1c1ccccc41)C32 (centres undefined) + CCO + O | 0.0954
CCCCN1CCCCC1C(=O)Nc1c(C)cccc1C.Cl.O (centres undefined) + CCO + O | 3.27

Okay, now this compound:
## Task Fill in the blank: the reported solubility (g/100 g solution) of CC1(C)SC2C(NC(=O)C(NC(=O)N3CCNC3=O)c3ccccc3)C(=O)N2C1C(=O)O (centres undefined) + CO + CC(C)O is ____.
## Result 0.277
